assay: self-splicing fitness, log relative to wild type (ln ratio); higher = more splicing; Tetrahymena group I intron in knt gene, E. coli kanamycin selection, DiMSum; sequences stand for … in CUCUCU…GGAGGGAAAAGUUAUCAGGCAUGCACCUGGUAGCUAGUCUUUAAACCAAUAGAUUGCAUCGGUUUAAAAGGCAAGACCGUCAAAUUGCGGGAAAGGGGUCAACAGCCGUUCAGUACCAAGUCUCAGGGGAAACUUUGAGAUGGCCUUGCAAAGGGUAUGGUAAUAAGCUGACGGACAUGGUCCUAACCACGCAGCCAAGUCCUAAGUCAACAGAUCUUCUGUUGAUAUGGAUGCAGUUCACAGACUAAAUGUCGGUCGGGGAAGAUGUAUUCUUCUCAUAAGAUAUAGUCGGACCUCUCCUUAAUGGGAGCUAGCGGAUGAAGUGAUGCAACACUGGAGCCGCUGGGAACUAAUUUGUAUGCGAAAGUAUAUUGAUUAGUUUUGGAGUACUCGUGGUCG; settings: 37 °C;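 also: selection with 25 µg/mL kanamycin versus none on LB agar overnight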
Exercise: state measured self-splicing fitness (ln) for each of the sequences provided.

Inquiry: Entry under review: AGCGAGCAAUAUUACGAACU . Reported self-splicing fitness (ln)?
Reply text: -1.17

Inquiry: Would you mind telling me what self-splicing fitness (ln) value was observed for GUUGAGCAAUAUUACGCAGA ?
Reply text: -3.6

Inquiry: Request the reported self-splicing fitness (ln) associated with CAUUAGCAAUAUUACGCGAA
Reply text: -1.17

Inquiry: Look up self-splicing fitness (ln) for this sequence: CCAAAGCAAUAUUACGCCGC
Reply text: -2.58

Inquiry: Param item = AACUAGCAAUAUUACGCGGC ; retrieve measured self-splicing fitness (ln).
Reply text: -3.27

Inquiry: # lookup: self-splicing fitness (ln) of GCUAAGCAAUAUUACGUGAA
Reply text: -0.304

Inquiry: Could you tell me which self-splicing fitness (ln) is on file for UAACAGCAAUAUUACGUCCU ?
Reply text: -0.192

Inquiry: Entry GUAGAGCAAUAUUACGGGGA : reported self-splicing fitness (ln) = ?
Reply text: -1.16

Inquiry: May I ask what self-splicing fitness (ln) has been recorded for AAUCAGCAAUAUUACGAGCA ?
Reply text: -0.0653

Inquiry: Using the record for UGCAAGCAAUAUUACGUCGU , report its self-splicing fitness (ln).
Reply text: -1.81

Inquiry: I'd like to know its self-splicing fitness (ln). The sequence in question is GAACAGCAAUAUUACGCUUA
Reply text: -0.826

Inquiry: Request the reported self-splicing fitness (ln) associated with GUACAGCAAUAUUACGUACG
Reply text: -2.2

Inquiry: Please give the measured self-splicing fitness (ln) for this sequence: UUAAAGCAAUAUUACGGCCU
Reply text: 0.567

###

test: self-splicing fitness, log relative to wild type (ln ratio); higher = more splicing; Tetrahymena group I intron in knt gene, E. coli kanamycin selection, DiMSum; sequences stand for … in CUCUCU…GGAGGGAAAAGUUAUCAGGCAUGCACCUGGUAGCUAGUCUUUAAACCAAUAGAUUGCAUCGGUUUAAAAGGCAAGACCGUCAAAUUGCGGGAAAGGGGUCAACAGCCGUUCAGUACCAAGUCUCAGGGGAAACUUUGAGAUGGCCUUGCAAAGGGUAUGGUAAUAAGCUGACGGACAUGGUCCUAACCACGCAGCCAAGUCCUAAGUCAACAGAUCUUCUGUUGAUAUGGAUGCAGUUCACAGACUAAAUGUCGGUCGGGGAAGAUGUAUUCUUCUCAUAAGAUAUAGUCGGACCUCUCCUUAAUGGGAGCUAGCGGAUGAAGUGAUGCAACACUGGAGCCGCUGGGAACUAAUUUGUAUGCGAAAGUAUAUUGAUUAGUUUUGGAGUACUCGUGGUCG; conditions: 37 °C
Label scheme for self-splicing fitness (ln): lower than -2 is F, -2 and above is T.

Inquiry: Textbook exercise: given the entry GCAAAGCAAUAUUACGAUGA , state whether its self-splicing fitness (ln) is greater than or equal to -2.
Reply text: T

Inquiry: Identify whether the reported self-splicing fitness (ln) of the following sequence is -2 or greater: ACUUAGCAAUAUUACGACGG
Reply text: T

Inquiry: Dear colleague, could you confirm whether UUCUAGCAAUAUUACGACCU has self-splicing fitness (ln) at or above -2?
Reply text: F

Inquiry: hey, is self-splicing fitness (ln) for this one >= -2? UCACAGCAAUAUUACGGCUG
Reply text: F

Inquiry: Hi team, for UGUAAGCAAUAUUACGCUAU , is the recorded self-splicing fitness (ln) at or above -2?
Reply text: F

Inquiry: # bool: self-splicing fitness (ln) of UACCAGCAAUAUUACGAGUC >= -2
Reply text: T

Inquiry: Is self-splicing fitness (ln) at least -2? Consider CCUCAGCAAUAUUACGGGAA
Reply text: F

Inquiry: Reported self-splicing fitness (ln) reaches at least -2 for UUUAAGCAAUAUUACGUAGC ?
Reply text: F

Inquiry: Given the entry CGGGAGCAAUAUUACGAGUG , answer whether its self-splicing fitness (ln) meets or surpasses -2.
Reply text: T

Inquiry: For this sequence, is measured self-splicing fitness (ln) -2 or higher? UAUUAGCAAUAUUACGGGUU
Reply text: T

Inquiry: hey, is self-splicing fitness (ln) for this one >= -2? GGCAAGCAAUAUUACGUAUG
Reply text: T

###

assay: self-splicing fitness, log relative to wild type (ln ratio); higher = more splicing; Tetrahymena group I intron in knt gene, E. coli kanamycin selection, DiMSum; sequences stand for … in CUCUCU…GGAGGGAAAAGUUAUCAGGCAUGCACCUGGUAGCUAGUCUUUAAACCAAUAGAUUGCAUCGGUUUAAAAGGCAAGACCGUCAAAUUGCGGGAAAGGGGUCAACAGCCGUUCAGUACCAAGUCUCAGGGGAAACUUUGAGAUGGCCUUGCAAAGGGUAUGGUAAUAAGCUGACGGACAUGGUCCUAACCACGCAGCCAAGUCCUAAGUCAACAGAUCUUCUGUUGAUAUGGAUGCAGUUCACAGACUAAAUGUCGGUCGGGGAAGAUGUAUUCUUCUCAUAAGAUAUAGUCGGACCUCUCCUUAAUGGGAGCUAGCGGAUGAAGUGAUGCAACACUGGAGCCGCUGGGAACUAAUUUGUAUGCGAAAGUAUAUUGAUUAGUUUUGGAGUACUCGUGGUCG; conditions: 30 °C
readout.label: self-splicing fitness (ln)
Answer using only a numeral; do not append any unit.

Inquiry: Which self-splicing fitness (ln) reading was recorded for the sequence CCCGAGCAAUAUUACGGGCG ?
Reply text: -3.03

Inquiry: Endpoint output: self-splicing fitness (ln) of AUCAAGCAAUAUUACGUUCU . Value?
Reply text: -0.858

Inquiry: Param item = CAGAAGCAAUAUUACGCCCG ; retrieve measured self-splicing fitness (ln).
Reply text: -0.995

Inquiry: Entry AUCUAGCAAUAUUACGGUUA : reported self-splicing fitness (ln) = ?
Reply text: -0.746

Inquiry: Look up self-splicing fitness (ln): UUACAGCAAUAUUACGCUCC
Reply text: -1.45

Inquiry: self-splicing fitness (ln) lookup needed for CUAUAGCAAUAUUACGAUGG , thanks.
Reply text: -3.44

Inquiry: State the recorded self-splicing fitness (ln) for this entry: CAUCAGCAAUAUUACGGAUC
Reply text: -1.79

Inquiry: # query: self-splicing fitness (ln) of entry CGCUAGCAAUAUUACGUAGU
Reply text: -3.48

Inquiry: Recorded self-splicing fitness (ln) of GUACAGCAAUAUUACGAGGG , please.
Reply text: -3.21

Inquiry: Quick one: self-splicing fitness (ln) of CGACAGCAAUAUUACGUAUA ?
Reply text: -4.3

Inquiry: What self-splicing fitness (ln) value was documented for this sequence, AGUUAGCAAUAUUACGUGCC ?
Reply text: -0.977

Inquiry: Recorded self-splicing fitness (ln) of CACGAGCAAUAUUACGCCGC , please.
Reply text: -2.93

Inquiry: I would be grateful if you could share the reported self-splicing fitness (ln) for CCCCAGCAAUAUUACGGAGA .
Reply text: -2.32

Inquiry: Param item = GUCUAGCAAUAUUACGUGAU ; retrieve measured self-splicing fitness (ln).
Reply text: -1.04

Inquiry: I'd like to know its self-splicing fitness (ln). The sequence in question is UUAUAGCAAUAUUACGUUCU
Reply text: -2.18

Inquiry: So what's the measured self-splicing fitness (ln) for this one? AGAAAGCAAUAUUACGAGUC
Reply text: -3.82

Inquiry: Returns the measured self-splicing fitness (ln) for the input sequence. Input: CGGGAGCAAUAUUACGCUUA
Reply text: -2.19

Inquiry: What measured self-splicing fitness (ln) goes with CCAAAGCAAUAUUACGGUCU ?
Reply text: -3.75

Inquiry: Consider the sequence UGGAAGCAAUAUUACGCGUC and give its measured self-splicing fitness (ln).
Reply text: -0.409

Inquiry: Tell me the measured self-splicing fitness (ln) of CGAUAGCAAUAUUACGAGUC , please.
Reply text: -2.74

Inquiry: So what does the record say about self-splicing fitness (ln) for CUUCAGCAAUAUUACGCCGU ?
Reply text: -3.17

Inquiry: Need self-splicing fitness (ln), item UGCAAGCAAUAUUACGUUAA
Reply text: -2.27

Inquiry: Recorded self-splicing fitness (ln) of GUCCAGCAAUAUUACGGUUU , please.
Reply text: -0.181

Inquiry: Item under review: GCGAAGCAAUAUUACGGUAU . Reported self-splicing fitness (ln)?
Reply text: -3.35

Inquiry: Look at this sequence and give its reported self-splicing fitness (ln). UUACAGCAAUAUUACGCCCA
Reply text: -1.62

Inquiry: I'd like to know its self-splicing fitness (ln). The sequence in question is AUGCAGCAAUAUUACGUCGA
Reply text: -1.61

Inquiry: Can you look up the measured self-splicing fitness (ln) of CCCGAGCAAUAUUACGUGCG for me?
Reply text: -4.04

Inquiry: Find the recorded self-splicing fitness (ln) belonging to GUCUAGCAAUAUUACGUAAG and report it.
Reply text: -1.02

Inquiry: Which self-splicing fitness (ln) is reported for this sequence? UCAAAGCAAUAUUACGUUAU
Reply text: -3.43

Inquiry: Form field: reported self-splicing fitness (ln) of GGCUAGCAAUAUUACGGGUA
Reply text: -0.679

Inquiry: Name the reported self-splicing fitness (ln) value associated with the sequence CGUCAGCAAUAUUACGGUCC
Reply text: -1.34

Inquiry: Fill blank: measured self-splicing fitness (ln) of the sequence AGACAGCAAUAUUACGUUAC is ____.
Reply text: -3.81

Inquiry: Query: self-splicing fitness (ln); subject: UGCUAGCAAUAUUACGCGGG
Reply text: -3.41

Inquiry: Item GGUAAGCAAUAUUACGGUUC has what recorded self-splicing fitness (ln)?
Reply text: -0.52

Inquiry: Would you mind telling me what self-splicing fitness (ln) value was observed for GUUGAGCAAUAUUACGAAUC ?
Reply text: -1.91

Inquiry: Entry under review: GUUGAGCAAUAUUACGCAGA . Reported self-splicing fitness (ln)?
Reply text: -2.67

Inquiry: Entry CCCUAGCAAUAUUACGGGUG : reported self-splicing fitness (ln) = ?
Reply text: -2.51

Inquiry: Dear colleague, I am looking for the recorded self-splicing fitness (ln) of the following sequence: UAGAAGCAAUAUUACGGGCG
Reply text: 0.0568

Inquiry: Can you share its self-splicing fitness (ln)? I mean this sequence: UCAUAGCAAUAUUACGUACA
Reply text: -2.15

Inquiry: Fill in: self-splicing fitness (ln) of UUACAGCAAUAUUACGGUCC is ___
Reply text: -1.95

Inquiry: Sample GACUAGCAAUAUUACGUACA — what was its self-splicing fitness (ln)?
Reply text: -1.02

Inquiry: Given UACCAGCAAUAUUACGCUAG , state its recorded self-splicing fitness (ln).
Reply text: -1.76

Inquiry: I would be grateful if you could share the reported self-splicing fitness (ln) for GAGUAGCAAUAUUACGAGAC .
Reply text: -3.25

Inquiry: Please report the recorded self-splicing fitness (ln) for GGAUAGCAAUAUUACGGCUU .
Reply text: -0.686

Inquiry: Given CAGCAGCAAUAUUACGAGAC , state its recorded self-splicing fitness (ln).
Reply text: -3.94

Inquiry: Entry under review: GGUCAGCAAUAUUACGCUCA . Reported self-splicing fitness (ln)?
Reply text: -1.15

Inquiry: Given the sequence CCCGAGCAAUAUUACGCCUU , what is its reported self-splicing fitness (ln)?
Reply text: -2.99

Inquiry: Request the reported self-splicing fitness (ln) associated with UGCUAGCAAUAUUACGGUCG
Reply text: 0.0903

Inquiry: Given ACGAAGCAAUAUUACGCUAC , state its recorded self-splicing fitness (ln).
Reply text: -2.09

Inquiry: Data request, read-out self-splicing fitness (ln), for AUAAAGCAAUAUUACGUGAU
Reply text: -1.64

Inquiry: Look at this sequence and give its reported self-splicing fitness (ln). UAGCAGCAAUAUUACGAGGG
Reply text: -1.97

Inquiry: Endpoint output: self-splicing fitness (ln) of AGUUAGCAAUAUUACGUUGA . Value?
Reply text: -2.03

Inquiry: Name the reported self-splicing fitness (ln) value associated with the sequence CGUCAGCAAUAUUACGCGCU
Reply text: -0.602

Inquiry: Tell me the measured self-splicing fitness (ln) of UAGCAGCAAUAUUACGGCGA , please.
Reply text: -0.238

Inquiry: May I ask what self-splicing fitness (ln) has been recorded for UCGUAGCAAUAUUACGCUUC ?
Reply text: -3.12

Inquiry: Which self-splicing fitness (ln) is reported for this sequence? UUGCAGCAAUAUUACGUCUC
Reply text: -1.21

Inquiry: Find the recorded self-splicing fitness (ln) belonging to ACACAGCAAUAUUACGGUGA and report it.
Reply text: -1.31

Inquiry: Quick check: self-splicing fitness (ln) of AUAAAGCAAUAUUACGUGGC ?
Reply text: -3.27

Inquiry: Quick one: self-splicing fitness (ln) of CAGGAGCAAUAUUACGGUUA ?
Reply text: -3.1

Inquiry: I'd like to know its self-splicing fitness (ln). The sequence in question is ACUGAGCAAUAUUACGCGCA
Reply text: -3.04

Inquiry: Form field: reported self-splicing fitness (ln) of UCCUAGCAAUAUUACGUAGA
Reply text: -2.36

Inquiry: May I ask what self-splicing fitness (ln) has been recorded for UGCAAGCAAUAUUACGUCGU ?
Reply text: -3.58

Inquiry: Param item = CUCCAGCAAUAUUACGGUUA ; retrieve measured self-splicing fitness (ln).
Reply text: -3.03

Inquiry: // query self-splicing fitness (ln) value for entry GGUUAGCAAUAUUACGUUUC
Reply text: -3.04
